target: Neuronal acetylcholine receptor; alpha3/beta4 (Rattus norvegicus, UniProt P04757+P12392); test: biochemical
Sequence (P04757 whole entry): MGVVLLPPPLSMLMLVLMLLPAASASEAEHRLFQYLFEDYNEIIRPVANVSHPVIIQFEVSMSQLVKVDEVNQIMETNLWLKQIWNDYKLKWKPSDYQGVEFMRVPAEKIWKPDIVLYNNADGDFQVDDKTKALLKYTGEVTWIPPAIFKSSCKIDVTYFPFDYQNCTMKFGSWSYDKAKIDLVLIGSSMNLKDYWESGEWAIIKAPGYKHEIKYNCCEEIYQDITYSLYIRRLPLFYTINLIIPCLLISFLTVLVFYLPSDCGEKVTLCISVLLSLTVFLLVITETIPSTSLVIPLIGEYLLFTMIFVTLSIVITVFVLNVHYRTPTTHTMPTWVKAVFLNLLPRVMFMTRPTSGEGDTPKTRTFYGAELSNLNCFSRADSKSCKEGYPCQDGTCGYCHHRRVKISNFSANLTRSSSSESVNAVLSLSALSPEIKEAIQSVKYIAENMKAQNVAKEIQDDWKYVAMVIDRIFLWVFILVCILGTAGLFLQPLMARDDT
Sequence (P12392 whole entry): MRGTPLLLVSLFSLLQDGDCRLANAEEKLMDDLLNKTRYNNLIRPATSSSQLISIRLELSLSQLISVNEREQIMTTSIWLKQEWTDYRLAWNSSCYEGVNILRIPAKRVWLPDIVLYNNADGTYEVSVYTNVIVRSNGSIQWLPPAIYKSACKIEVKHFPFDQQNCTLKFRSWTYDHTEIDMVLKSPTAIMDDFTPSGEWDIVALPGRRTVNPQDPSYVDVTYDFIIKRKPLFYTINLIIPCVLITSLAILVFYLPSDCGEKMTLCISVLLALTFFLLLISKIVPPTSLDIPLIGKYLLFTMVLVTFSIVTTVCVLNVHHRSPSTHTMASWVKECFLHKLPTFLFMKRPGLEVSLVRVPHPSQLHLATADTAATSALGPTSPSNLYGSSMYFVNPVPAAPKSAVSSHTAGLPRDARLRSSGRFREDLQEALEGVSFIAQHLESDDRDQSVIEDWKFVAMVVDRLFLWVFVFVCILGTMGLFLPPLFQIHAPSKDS
Description: Displacement of [3H]epibatidine from rat recombinant alpha3beta4 nAChR expressed in HEK293 cells after 4 hrs by scintillation counting analysis
Just a reminder that ties go to false (0): only Ki strictly below 20 µM counts as true (1).

INSERT INTO measurements (smiles_repr, class_label) VALUES
  ('C[C@H](CCOc1nccs1)N(C)C', 'true (1)'),
  ('C[C@H](CCOc1cnccn1)N(C)C', 'false (0)'),
  ('Cc1cn(C)c(OCC[C@@H](C)N(C)C)n1', 'false (0)'),
  ('C[C@H](CCOC(=O)N(C)C)N(C)C', 'true (1)'),
  ('C[C@H](CCOc1nc(Br)cn1C)N(C)C', 'false (0)'),
  ('C[C@H](CCOc1cccnc1)N(C)C', 'true (1)'),
  ('C[C@H](CCOn1cccn1)N(C)C', 'true (1)');
